The reported measurements were obtained from PubChem BioAssay (NCI).

Test system: MDA-MB-468 breast
Experiment: NCI-60 one-dose screen, 48 h
Conditions: 10 µM unless noted
The panel holds about 83,000 compounds, 20% with a hit somewhere; the sample as a whole holds those more often. The source made the active and inactive calls. Rule for the calls: active = growth percent below 10; inactive = the rest.
Tick one outcome: active, inactive

Worked examples, 5 compounds total:
| COMPOUND | SYSTEM_TESTED | DISCRETE_LABEL |
| --- | --- | --- |
| CC(C)c1ccc(Nc2ccc3c(OCCCN4CCN(C)CC4)cccc3n2)cc1 | MDA-MB-468 breast | inactive |
| CNCCNc1nc2ccccc2c2c(=O)c3cc(F)ccc3oc12 | MDA-MB-468 breast | inactive |
| O=C1N/C(=N/O)S/C1=C/c1cn(-c2ccccc2)nc1-c1ccccc1 | MDA-MB-468 breast | inactive |
| CC1CC(=O)OC(C)C1 (stereo unspecified) | MDA-MB-468 breast | inactive |
| COc1ccc(-n2ncc3c2ccc2cc(S(=O)(=O)c4ccccc4)c(=O)n(C)c23)cc1 | MDA-MB-468 breast | inactive |

Next up:
What did the test return for "Cc1cc(C)c(-c2c(O)c(Br)c(-c3c(C)cc(C)c(Br)c3C)c(O)c2Br)c(C)c1Br" ?
inactive

###

Form field: growth (one value per entry).
Test system: MDA-MB-468 breast
Assay: NCI-60 one-dose screen, 48 h (100 = growth as untreated, 0 = no growth, -100 = all killed)
Details: 10 µM unless noted
Compounds without any hit were thinned out: in the full panel of roughly 83,000, 20% have a hit.
Could you give me the number in %? Just the number is fine.

Check out these entries, answers already filled in.
| COMPOUND | EXPERIMENTAL_ENDPOINT | RESULT_NUMBER |
| --- | --- | --- |
| Fc1ccc(-c2nc(C(Cl)Cl)nc3cc(-c4ccccc4)nn23)cc1 | growth | -52.7 |
| COc1cc2c(cc1-c1c(C)noc1C)ncc1nc(C3CCC(F)(F)CC3)n(C3CCC(OC(F)F)CC3)c12 (centres undefined) | growth | 43.4 |
| NC[C@@H]1O[C@H](O[C@@H]2[C@@H](CO)OC(O[C@@H]3[C@@H](O)[C@H](N)C[C@H](N)[C@H]3OC3O[C@H](CN)[C@@H](O)[C@H](O)[C@H]3N)[C@@H]2O)[C@H](N)[C@@H](O)[C@@H]1O (some centres undefined) | growth | 110 |

Item COc1ccc(/C=C/C(c2cc(OC)c(OC)c(OC)c2)n2cncn2)cc1O (centres undefined) has what recorded growth?
8.27

Item CC(C)NC(=O)N1C(=O)CCC1NNC(=O)c1ccc([N+](=O)[O-])cc1 (centres undefined) has what recorded growth?
114

Item "COc1ccc(NC(=O)C(=O)c2c[nH]c3ccc(F)cc23)cc1" has what recorded growth?
95.3

Item CC(CN(C)C)Oc1ccc(OC(C)CN(C)C)c2c1C(=O)c1ccccc1C2=O (centres undefined) has what recorded growth?
33.2

Item "CCCCCCCCOc1ccc(/C=N/Nc2cc(C)nc3ccc(Br)cc23)cc1" has what recorded growth?
90

Item NC1=NC(c2ccccc2OS(=O)(=O)c2ccc(Br)cc2)n2c(nc3ccccc32)N1 (centres undefined) has what recorded growth?
104

###

Test system: EKVX NSCLC
Test: NCI-60 one-dose screen, 48 h
Conditions: 10 µM
The panel holds about 83,000 compounds, 20% with a hit somewhere; the sample as a whole holds those more often. The source made the active and inactive calls. Rule for the calls: active = growth percent below 10; inactive = the rest.
Tick one outcome: y = active, n = inactive

| COMPOUND | DISCRETE_LABEL |
| --- | --- |
| Cc1ccc(-c2nc(C#N)c(S(=O)(=O)N3CCN(S(C)(=O)=O)CC3)o2)cc1 | n |
| COc1ccc(Cc2nn(CC(=O)N/N=C/c3ccc([N+](=O)[O-])cc3)c(=O)c3c(C)noc23)cc1 | n |
| CC1[C@H]2[C@H](C[C@H]3[C@@H]4CC=C5c6sc(Nc7cccc(Cl)n7)nc6CC[C@]5(C)[C@H]4CC[C@@]32C)O[C@]12CC[C@@H](C)CO2 (stereo not given in full) | n |
| C#CCOc1cc(N(CC)CC)ccc1C(C(=O)NC(C)(C)C)N(C(=O)C1CCc2cc(F)ccc2O1)c1ccc(F)cc1F (stereo not given) | n |
| O=C(CSc1nc2ccccc2c(=O)n1-c1ccc(Cl)cc1)Nc1ccc(-c2nc3ccccc3[nH]2)cc1 | n |

What did the test return for "Cc1cc(N=C2NC(=O)S/C2=C\c2ccc(F)cc2)n[nH]1" ?
n

What did the test return for "Cn1cc(-c2cc3nc(-c4c[nH]c5ccccc45)cc(N)n3n2)c2cc(Cl)ccc21" ?
y

What did the test return for "COc1cc2oc(-c3cccc(C(=O)Nc4ccc(Cl)cc4)c3)cc(=O)c2c(OCCN)c1OC" ?
y

What did the test return for "O=[N+]([O-])c1cccc(-c2nnc3c(/C=C/c4ccccc4O)nc4ccccc4n23)c1" ?
n

What did the test return for "Nc1nnc(-c2c[nH]c3ncc(Br)cc23)c(-c2c[nH]c3ccc(Br)cc23)n1" ?
n

What did the test return for "COc1cc(Nc2nc(O)c(/C=C3\C=Nc4ccccc43)s2)cc(OC)c1OC" ?
y

###

Test system: MDA-MB-468 breast
Test: NCI-60 one-dose screen, 48 h
Settings: 10 µM unless noted
The panel holds about 83,000 compounds, 20% with a hit somewhere; the sample as a whole holds those more often. Activity calls are given as the source filed them. The calls were made as follows: active = growth percent below 10; inactive = the rest.
Tick one outcome: class 1 (active), class 0 (inactive)

Worked examples, 5 molecules total:
| MOLECULE | DISCRETE_LABEL |
| --- | --- |
| COC(=O)c1c2c(c[n+]([O-])c1C)C(=O)C=C(NCc1ccccc1)C2=O | class 1 |
| COc1ccc(C(C(=O)O)c2ccc(OC)cc2)cc1 | class 0 |
| COc1ccc(-c2cn[nH]c2-c2cc(OC)c(OC)c(OC)c2)cc1OCc1ccccc1 | class 1 |
| CCOC(=O)c1c(N)sc2cc(O)ccc12 | class 0 |
| Clc1ccc(C(/C=C/c2sc(Cl)nc2Cl)=N/Nc2cc(Cl)cc(Cl)c2)cc1 | class 0 |

What did the test return for "CCc1ccc(-c2nnc(COc3ccc(-c4nc5cc(Cl)c(Cl)cc5[nH]4)cc3OC)o2)cc1" ?
class 0

###

Test system: MDA-MB-468 breast
Test: NCI-60 one-dose screen, 48 h (100 = growth as untreated, 0 = no growth, -100 = all killed)
Conditions: 10 µM unless noted
This is part of a sample that, as a whole, favours compounds with a hit. Of some 83,000 tested, about 20% had one in any assay.
EXPERIMENTAL_ENDPOINT: growth (%)
Could you give me the number in %? Just the number is fine.

Check out these entries, answers already filled in.
| SAMPLE_SMILES | growth, % |
| --- | --- |
| Nc1nonc1-c1nc2ccccc2n1Cc1ccc(F)cc1 | 23.6 |
| CCCCCCCCCCCCCCCCCCOc1ccccc1CC(=O)OCC[N+](C)(C)C | -38.9 |

Item "FC(F)(F)c1ccc(-c2cnc(Br)nc2NC2CCCCCC2)cc1" has what recorded growth?
12.6

Item "COc1ccc(-c2nnc(SCC(=O)NC3=NN=C(c4ccccc4)CS3)o2)cc1" has what recorded growth?
105

###

Tested on: MDA-MB-468 breast
Assay: NCI-60 one-dose screen, 48 h (100 = growth as untreated, 0 = no growth, -100 = all killed)
Conditions: 10 µM unless noted
The panel holds about 83,000 compounds, 20% with a hit somewhere; the sample as a whole holds those more often.
Each entry falls in a class defined on growth; the bands are bin A (below -20%), bin B (-20% to below 70%), bin C (70% or more)

| SAMPLE_SMILES | SYSTEM_TESTED | DISCRETE_LABEL |
| --- | --- | --- |
| Fc1cccc(Cl)c1/C=N/Nc1nc(N/N=C/c2c(F)cccc2Cl)nc(N2CCCCC2)n1 | MDA-MB-468 breast | bin B |

Next up:
Hi, small favor: classify "O=c1cc(CSc2nnc(-c3ccc(F)cc3)o2)c2ccc3ccccc3c2o1" by its growth when you get a moment.
bin C

###

Form field: growth (one value per entry).
Tested on: PC-3 prostate
Assay: NCI-60 one-dose screen, 48 h (100 = growth as untreated, 0 = no growth, -100 = all killed)
Details: 10 µM
The panel holds about 83,000 compounds, 20% with a hit somewhere; the sample as a whole holds those more often.
Could you give me the number in %? Just the number is fine.

Check out these entries, answers already filled in.
| COMPOUND | SYSTEM_TESTED | growth / % |
| --- | --- | --- |
| CC(C)(C)c1cc(/C=C2\S/C(=N/c3ncn[nH]3)NC2=O)cc(C(C)(C)C)c1O | PC-3 prostate | 12.2 |
| O=C(c1ccc(F)cc1)C(c1c[nH]c2ccccc12)c1c[nH]c2ccccc12 | PC-3 prostate | 41 |
| Cn1cc(-c2nc(N)nnc2-c2c[nH]c3ccccc23)c2cc(Br)cnc21 | PC-3 prostate | 13.3 |

Lab note: next compound to report on.
Item CC1[C@H]2[C@H](C[C@H]3[C@@H]4CC=C5c6sc(Nc7cccc(Cl)n7)nc6CC[C@]5(C)[C@H]4CC[C@@]32C)O[C@]12CC[C@@H](C)CO2 (some centres undefined) has what recorded growth?
48
